- MEASURED_TARGET: UniProt P28223
- Sequence (P28223 whole entry): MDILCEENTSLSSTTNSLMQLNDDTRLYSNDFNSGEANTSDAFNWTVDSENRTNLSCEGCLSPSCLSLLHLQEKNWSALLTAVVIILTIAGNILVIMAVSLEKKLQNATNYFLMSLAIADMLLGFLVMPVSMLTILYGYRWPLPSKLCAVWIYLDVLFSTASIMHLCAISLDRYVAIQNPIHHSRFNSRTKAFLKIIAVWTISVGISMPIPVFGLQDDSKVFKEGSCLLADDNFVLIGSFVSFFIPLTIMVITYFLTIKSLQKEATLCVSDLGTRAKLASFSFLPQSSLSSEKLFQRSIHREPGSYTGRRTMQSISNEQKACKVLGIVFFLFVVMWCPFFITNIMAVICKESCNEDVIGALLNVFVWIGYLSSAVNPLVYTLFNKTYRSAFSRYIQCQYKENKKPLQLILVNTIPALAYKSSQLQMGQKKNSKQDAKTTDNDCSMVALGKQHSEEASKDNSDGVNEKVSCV
Mark Yes for Ki under 0.1 µM, No if at or over.

Inquiry: Ki under 0.1 µM? Item: CCCCC(=O)Oc1cccc2c1-c1cccc3c1[C@@H](C2)N(CCC)CC3
Reply text: Yes

Inquiry: Ki under 0.1 µM? Item: CCCN1CCc2cccc3c2[C@H]1Cc1cccc(OC(C)=O)c1-3
Reply text: Yes

Next item in the queue.
Inquiry: Ki under 0.1 µM? Item: CCCN1CCc2cccc3c2[C@H]1Cc1cccc(O)c1-3
Reply text: No

* * *

- MEASURED_TARGET: D(2) dopamine receptor (Homo sapiens, UniProt P14416)
- Sequence (P14416 whole entry): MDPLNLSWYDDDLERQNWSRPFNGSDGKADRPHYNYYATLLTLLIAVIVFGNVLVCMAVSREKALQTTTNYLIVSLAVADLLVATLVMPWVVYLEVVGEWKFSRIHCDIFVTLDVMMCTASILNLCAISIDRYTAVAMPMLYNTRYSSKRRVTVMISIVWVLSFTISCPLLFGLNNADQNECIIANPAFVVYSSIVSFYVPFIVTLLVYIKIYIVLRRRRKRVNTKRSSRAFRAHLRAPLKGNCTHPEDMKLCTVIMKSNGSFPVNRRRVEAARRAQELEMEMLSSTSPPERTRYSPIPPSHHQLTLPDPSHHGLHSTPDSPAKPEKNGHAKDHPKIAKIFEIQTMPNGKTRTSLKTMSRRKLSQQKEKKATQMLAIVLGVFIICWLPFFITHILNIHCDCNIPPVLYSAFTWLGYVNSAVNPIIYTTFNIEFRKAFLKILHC
- ASSAY_NAME: Displacement of […] from human dopamine D2 receptor expressed in HEK293 cells
- Assay type: cell-based
pKi: −log10 of the molar value.
PARAMETER: pKi

Inquiry: Write down pKi measured for item CCCN1CCc2cccc3c2[C@H]1Cc1cccc(OC(=O)CCCC(=O)Oc2cccc4c2-c2cccc5c2[C@@H](C4)N(CCC)CC5)c1-3
Reply text: < 5.00

* * *

- MEASURED_TARGET: Dopamine D1 receptor
- ASSAY_NAME: Displacement of [3H]SCH23390 from rat dopamine D1 receptor expressed in HEK293 cells
pKi: −log10 of the molar value.
PARAMETER: pKi

Inquiry: Write down pKi measured for item CCCC(=O)Oc1cccc2c1-c1cccc3c1[C@@H](C2)N(CCC)CC3
Reply text: < 5.00

Inquiry: Write down pKi measured for item CCCCCC(=O)Oc1cccc2c1-c1cccc3c1[C@@H](C2)N(CCC)CC3
Reply text: < 5.00

Please find the next compound below.
Inquiry: Write down pKi measured for item CCCN1CCc2cccc3c2[C@H]1Cc1cccc(OC(=O)CNC(=O)OCc2ccccc2)c1-3
Reply text: < 5.00

* * *

- MEASURED_TARGET: UniProt:P28223
- ASSAY_NAME: Displacement of [3H]Ketanserin from human 5HT2A receptor expressed in HEK293 cells
PARAMETER: pKi
Note on units: pKi is unitless, being -log10 of a concentration expressed in mol/L.

Inquiry: Write down pKi measured for item CCCC(=O)Oc1cccc2c1-c1cccc3c1[C@@H](C2)N(CCC)CC3
Reply text: 7.25

Inquiry: Write down pKi measured for item CCCN1CCc2cccc3c2[C@H]1Cc1cccc(OC(=O)CC)c1-3
Reply text: 6.96

Inquiry: Write down pKi measured for item CCCCCCC(=O)Oc1cccc2c1-c1cccc3c1[C@@H](C2)N(CCC)CC3
Reply text: 7.02

Inquiry: Write down pKi measured for item CCCCCC(=O)Oc1cccc2c1-c1cccc3c1[C@@H](C2)N(CCC)CC3
Reply text: 6.96

Origin of values: ChEMBL document CHEMBL1144215
